# PROTOCOL DESCRIPTION: Concentration in rat brain after 0.75 h at 100 umol/kg, po
# Type: ADME, organism-based
# MEASUREMENT SETUP: read-out: Drug uptake

COMPOUND: N[C@H](C(=O)O)c1ccccc1
ENDPOINT UNIT: ng/g
concentration at 0.75 h: 6300
//
COMPOUND: NC(C(=O)O)c1cccc(Cl)c1 (centres undefined)
ENDPOINT UNIT: ng/g
concentration at 0.75 h: 1760
//
COMPOUND: NCC1(CC(=O)O)CCCCC1 [GABAPENTIN]
ENDPOINT UNIT: ng/g
concentration at 0.75 h: 3410
//
COMPOUND: N[C@@H](CCSCc1ccccc1)C(=O)O
ENDPOINT UNIT: ng/g
concentration at 0.75 h: 430
